Source listed as ChEMBL document CHEMBL6096634.

Target: 20S proteasome
Assay: Activation of human erythrocyte-derived 20s proteosome using CT-L as peptide substrate by fluorescence based analysis
Format: cell-based
pEC50: −log10 of the molar value.
MEASURED_ATTRIBUTE: pEC50

Here's what some known entries look like.
compound_smiles=O=C(Nc1ccc(N2CCOCC2)cc1)c1cc(O)c2c(c1)C(=O)c1cccc(O)c1C2=O experimental_target="20S proteasome" result_value=5.74
compound_smiles=COc1ccc(Nc2cc(NCC(C)C)c3noc4c3c2C(=O)c2ccccc2-4)cc1 experimental_target="20S proteasome" result_value=5.52
compound_smiles=O=C1c2cccc(O)c2C(=O)c2c(O)cc(C(=O)N3CCC(c4ccccc4)CC3)cc21 experimental_target="20S proteasome" result_value=5.57
compound_smiles=CCCNc1cc(Nc2cccc(C)c2)c2c3c(onc13)-c1ccccc1C2=O experimental_target="20S proteasome" result_value=5.36

P. O=C1c2cccc(O)c2C(=O)c2c(O)cc(C(=O)N3CCN(c4nccs4)CC3)cc21
Q. Cc1cccc(NC(=O)c2cc(O)c3c(c2)C(=O)c2cccc(O)c2C3=O)c1
R. CN1CCN(c2ccc(NC(=O)c3cc(O)c4c(c3)C(=O)c3cccc(O)c3C4=O)cc2)CC1
Prompt: Reorder the items by pEC50, least to greatest. Use the labels to give the ranking in the order requested.
Response: R, P, Q

----------
Molecular target: 20S proteasome (Homo sapiens) (UniProt P49721+P20618+P28074+P28062+P28065+P28072+P25786+P25787+P25788+P25789+P28066+P60900+O14818+Q8TAA3+P40306+A5LHX3+P49720+P28070+Q99436)
Assay: Activation of human erythrocyte-derived 20s proteosome using T-L as peptide substrate by fluorescence based analysis; further: test concentration or dose not given here
Assay type: cell-based
Settings: filed as activator
MEASURED_ATTRIBUTE: fold change (FC)

compound_smiles=Cc1cccc(NC(=O)c2cc(O)c3c(c2)C(=O)c2cccc(O)c2C3=O)c1 result_value=6.5
compound_smiles=Cc1ccc(Nc2cc(NCC(C)C)c3noc4c3c2C(=O)c2ccccc2-4)cc1 result_value=4.8
compound_smiles=O=C1c2cccc(O)c2C(=O)c2c(O)cc(C(=O)N3CCN(c4nccs4)CC3)cc21 result_value=4.07
compound_smiles=CN1CCN(c2ccc(NC(=O)c3cc(O)c4c(c3)C(=O)c3cccc(O)c3C4=O)cc2)CC1 result_value=7.32
compound_smiles=O=C1c2cccc(O)c2C(=O)c2c(O)cc(C(=O)N3CCC(c4ccccc4)CC3)cc21 result_value=3.71
compound_smiles=CC(C)CNc1cc(Nc2ccc(N3CCOCC3)cc2)c2c3c(onc13)-c1ccccc1C2=O result_value=5.83

a. COc1ccc(Nc2cc(NCC(C)C)c(N)c3c2C(=O)c2ccccc2C3=O)cc1
b. COc1ccc(NC(=O)c2cc(O)c3c(c2)C(=O)c2cccc(O)c2C3=O)cc1
c. Cc1cccc(Nc2cc(NCCC(C)C)c3noc4c3c2C(=O)c2ccccc2-4)c1
Prompt: Reorder the items by fold change (FC), least to greatest. Use the labels to give the ranking in the order requested.
Response: c, a, b
